Biological target: Cytochrome P450 3A4 (Homo sapiens)
Assay: qHTS Assay for Inhibitors and Substrates of Cytochrome P450 3A4 (AID 884); further: nearly all actives have a fitted effect of over 50% in size
Conditions: recombinant CYP3A4, Luciferin-PPXE luminescence; series mostly up to 57.1 µM
Inconclusive results are not listed. Active and inactive are the calls of the source. The call rests on the fitted dose curve; in most records, active means well fitted inhibition curve with a large enough effect; inconclusive means small, poorly fitted or top-dose-only effect; inactive means no such curve, though single readings can be large or run the other way.
parameterMeasured: outcome

Previously resolved entries follow.
> print(dat)
                    compound                         assaytarget  measured
1            CC(=O)Nc1ccccc1  Cytochrome P450 3A4 (Homo sapiens)  inactive
2                  CCOC(N)=O  Cytochrome P450 3A4 (Homo sapiens)  inactive
3      O=c1[nH]cnc2nc[nH]c12  Cytochrome P450 3A4 (Homo sapiens)  inactive
4         CC(=O)Nc1cccc(O)c1  Cytochrome P450 3A4 (Homo sapiens)  inactive
5  C/C=C/C(=O)N(CC)c1ccccc1C  Cytochrome P450 3A4 (Homo sapiens)  inactive

// input: 5 compounds below; output: outcome for each
1. CC(=O)NCc1c(I)c(NC(C)=O)c(I)c(C(=O)O)c1I
2. CCCCCC(C)N (stereo unspecified)
3. CC(=O)Nc1ccc(C(=O)O)cc1
4. COc1ccc(O)cc1
5. CC(=O)OCC(COC(C)=O)OC(C)=O

## Result
1: inactive; 2: inactive; 3: inactive; 4: inactive; 5: inactive

// input: 5 compounds below; output: outcome for each
1. O=C(c1ccccc1)C(O)c1ccccc1 (stereo unspecified)
2. FC(F)(F)C(Cl)Br (stereo unspecified)
3. CCCCCC(N)=O
4. O=C1c2cccc(O)c2C(=O)c2c(O)cccc21
5. Cc1[nH]c(C)c(Cl)c(=O)c1Cl

## Result
["inactive", "inactive", "inactive", "inactive", "inactive"]

## Task Request - read-out outcome | tested on Cytochrome P450 3A4 (Homo sapiens) | compound C[n+]1ccccc1/C=N/O
## Result inactive
